# Test system: A549-ACE2
# ASSAY_REMARKS: drug-induced phospholipidosis relative to tamoxifen; higher = more phospholipidosis
# STATED_CONDITIONS: 0.833333 µM; 72 h
Here, each record is paired with measured drug-induced phospholipidosis data.

{"MOL": "[Cl][Ru-]([Cl])([Cl])[Cl].[Na+].c1ccc2[nH]ncc2c1.c1ccc2[nH]ncc2c1", "UNITS_TEXT": "%", "drug-induced phospholipidosis": -1.21}
{"MOL": "Cc1c(O)cccc1C(=O)N[C@@H](CSc1ccccc1)[C@H](O)CN1C[C@H]2CCCC[C@H]2C[C@H]1C(=O)NC(C)(C)C", "UNITS_TEXT": "%", "drug-induced phospholipidosis": -2.99}
{"MOL": "CC(C)n1cnc2c(NCCc3ccc(O)cc3)nc(-c3csc4ccccc34)nc21", "UNITS_TEXT": "%", "drug-induced phospholipidosis": 7.32}
{"MOL": "C#C[C@]1(O)CC[C@H]2[C@@H]3CCc4cc(OC5CCCC5)ccc4[C@H]3CC[C@@]21C", "UNITS_TEXT": "%", "drug-induced phospholipidosis": 16.2}
{"MOL": "CNC(=O)c1cc(Oc2ccc(NC(=O)Nc3ccc(Cl)c(C(F)(F)F)c3)cc2)ccn1", "UNITS_TEXT": "%", "drug-induced phospholipidosis": -1.46}
{"MOL": "Cc1nnc2n1-c1sc(CCC(=O)N3CCOCC3)cc1C(c1ccccc1Cl)=NC2", "UNITS_TEXT": "%", "drug-induced phospholipidosis": -0.663}
{"MOL": "Cc1cc(Nc2ncc(Cl)c(Nc3ccccc3S(=O)(=O)C(C)C)n2)c(OC(C)C)cc1C1CCNCC1", "UNITS_TEXT": "%", "drug-induced phospholipidosis": 5.24}
{"MOL": "CN(C)CCCCC(=O)Nc1ccc(NC(=S)NC(=O)c2ccc(C(C)(C)C)cc2)cc1", "UNITS_TEXT": "%", "drug-induced phospholipidosis": -3.12}

====

# System: A549-ACE2
# ASSAY_REMARKS: drug-induced phospholipidosis relative to tamoxifen; higher = more phospholipidosis
# STATED_CONDITIONS: 30 µM; 24 h
Here, each record is paired with measured drug-induced phospholipidosis data.
MEASURED_METRIC: drug-induced phospholipidosis (%)

{"MOL": "Nc1ccc(C(=O)Nc2cccc(-c3nc(N4CCOCC4)c4oc5ncccc5c4n3)c2)cn1", "SYSTEM_NAME": "A549-ACE2", "VALUE": 202}
{"MOL": "Cc1csc(-c2nnc(Nc3ccc(Oc4ncccc4-c4ccnc(N)n4)cc3)c3ccccc23)c1", "SYSTEM_NAME": "A549-ACE2", "VALUE": 33.3}
{"MOL": "CNC(=O)c1cc(Oc2ccc(NC(=O)Nc3ccc(Cl)c(C(F)(F)F)c3)cc2)ccn1", "SYSTEM_NAME": "A549-ACE2", "VALUE": -18.5}
{"MOL": "Cc1nnc2n1-c1sc(CCC(=O)N3CCOCC3)cc1C(c1ccccc1Cl)=NC2", "SYSTEM_NAME": "A549-ACE2", "VALUE": -0.48}
{"MOL": "Cc1c(O)cccc1C(=O)N[C@@H](CSc1ccccc1)[C@H](O)CN1C[C@H]2CCCC[C@H]2C[C@H]1C(=O)NC(C)(C)C", "SYSTEM_NAME": "A549-ACE2", "VALUE": 64.7}
{"MOL": "Cn1c(NC[C@@H](N)Cc2ccccc2)nc(-c2ccncc2)c(-c2ccc3ccccc3c2)c1=O", "SYSTEM_NAME": "A549-ACE2", "VALUE": 129}
